From: PubChem BioAssay (Tox21)

# measurement_protocol: qHTS assay to identify small molecule agonists of the endoplasmic reticulum stress response signaling pathway - cell viability counter screen (AID 1159517);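 note: HeLa cells carrying an ER stress response element beta-lactamase reporter; % is set by controls: 0 for no effect and ±100 for the full control effect; nearly all actives have a fitted effect of over 50% in size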
# protocol_conditions: ESRE-bla HeLa viability, CellTiter-Glo luminescence, 5 h; series mostly up to 61 µM
Inconclusive results are not listed. The source made the active and inactive calls. Calls come from the whole dose curve.
endpoint: activity change, negative = cytotoxicity

In the examples that follow, each entry is paired with its recorded activity change, negative = cytotoxicity.
{"compound": "CC12CCCC=C1C(=O)OC2=O (stereo not drawn)", "activity change, negative = cytotoxicity": "inactive"}
{"compound": "N#CC1(N)CCCCC1", "activity change, negative = cytotoxicity": "inactive"}
{"compound": "O=C1CCCc2c(O)cccc21", "activity change, negative = cytotoxicity": "inactive"}
{"compound": "O=C(CCBr)N1CCN(C(=O)CCBr)CC1", "activity change, negative = cytotoxicity": "inactive"}

Req: Recorded activity change, negative = cytotoxicity of `CCOC(=O)CC` , please.
Resp: inactive

Req: Also `COc1cc(S(N)(=O)=O)cc(C(=O)O)c1OC` , if possible.
Resp: inactive

Req: Also `BrCCOc1ccccc1` , if possible.
Resp: inactive

Req: Also `CC(C)(C)OC(=O)c1ccccc1C(=O)O` , if possible.
Resp: inactive

Req: Also CC(CN1CC(=O)NC(=O)C1)N1CC(=O)NC(=O)C1 (stereo not drawn) , if possible.
Resp: inactive

Req: Also `CC(C)C[P+](C)(CC(C)C)CC(C)C` , if possible.
Resp: inactive

Req: Also `COCCCOc1cc(C[C@@H](C[C@H](N)[C@@H](O)C[C@H](C(=O)NCC(C)(C)C(N)=O)C(C)C)C(C)C)ccc1OC` , if possible.
Resp: inactive

Req: Also `O=C1c2ccccc2C(=O)N1CO` , if possible.
Resp: inactive

Req: Also CC(O)C(CO)C(C)O (stereo not drawn) , if possible.
Resp: inactive

Req: Also C=C(C)C(=O)OCCOC1CC2CC1C1C=CCC21 (stereo not drawn) , if possible.
Resp: inactive

====

# target_under_test: Cytochrome P450 2D6 (Homo sapiens) (UniProt P10635)
# Sequence (P10635 whole entry, looked up): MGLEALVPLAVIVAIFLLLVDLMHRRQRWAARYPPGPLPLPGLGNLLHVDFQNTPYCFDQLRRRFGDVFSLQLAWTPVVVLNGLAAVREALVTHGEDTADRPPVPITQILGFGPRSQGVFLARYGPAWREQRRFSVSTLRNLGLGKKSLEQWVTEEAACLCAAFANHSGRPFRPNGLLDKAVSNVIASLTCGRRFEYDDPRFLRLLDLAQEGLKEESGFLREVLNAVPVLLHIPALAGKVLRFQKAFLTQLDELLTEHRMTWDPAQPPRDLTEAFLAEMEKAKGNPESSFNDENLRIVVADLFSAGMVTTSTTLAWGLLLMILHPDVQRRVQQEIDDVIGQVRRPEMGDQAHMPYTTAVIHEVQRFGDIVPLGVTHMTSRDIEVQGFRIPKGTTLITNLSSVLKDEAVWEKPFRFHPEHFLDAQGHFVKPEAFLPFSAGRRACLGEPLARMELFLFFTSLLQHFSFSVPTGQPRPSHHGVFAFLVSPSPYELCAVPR
# measurement_protocol: Cytochrome P450 Family 2 Subfamily D Member 6 (CYP2D6) small molecule antagonists: luciferase reporter qHTS assay (AID 1671196); note: nearly all actives have a fitted effect of over 50% in size
# protocol_conditions: P450-Glo CYP2D6 enzyme assay, luciferin luminescence, 1 h; series mostly up to 115 µM
Records with an inconclusive call do not appear. Activity calls are given as the source filed them. Calls follow the shape of the dose curve; as a rule, active = well fitted inhibition curve with a large enough effect in the repeat runs; inconclusive = weak or mixed curves; inactive = no such curve, though single readings can be large or run the other way.
Output constraint: value belongs to active, inactive

Req: Could you please tell me the result logged for `C=CCN(CC=C)CC=C` in this assay?
Resp: inactive

Req: Also `NS(=O)(=O)c1cc2c(cc1C(F)(F)F)NCNS2(=O)=O` , if possible.
Resp: inactive

Req: Also N[C@H]1C(O)O[C@H](CO)[C@@H](O)[C@@H]1O (some centres undefined) , if possible.
Resp: active

Req: Also CC(C)CC(O)Cc1ccccc1 (centres undefined) , if possible.
Resp: inactive

====

# measurement_protocol: A CellTox Green Cytotoxicity Assay to monitor cytotoxicity in HEK293 cells - 40 hour (AID 1224871); note: % is set by controls: 0 for no effect and ±100 for the full control effect; nearly all actives have a fitted effect of over 45% in size
# protocol_conditions: CellTox Green fluorescence; series mostly up to 76.8 µM
Results filed as inconclusive are left out. Calls of active or inactive are those of the source. Calls come from the whole dose curve; as a rule, active = well fitted activation curve with a large enough effect in the repeat runs; inconclusive = weak or mixed curves; inactive = flat fitted curve, though single readings scatter.
endpoint: cytotoxicity increase

{"compound": "C[C@@H]1NC(=O)[C@@H](N)CNC(=O)[C@H](C2CCNC(N)=N2)NC(=O)/C(=C/NC(N)=O)NC(=O)[C@H](CNC(=O)C[C@@H](N)CCCN)NC1=O (some centres undefined)", "cytotoxicity increase": "21.6% [at 0.29 µM] (inactive)"}
{"compound": "N[C@H]1C(O)O[C@H](CO)[C@@H](O)[C@@H]1O (some centres undefined)", "cytotoxicity increase": "inactive"}
{"compound": "CN1CCN(C(=O)C2CCCCC2)CC1", "cytotoxicity increase": "inactive"}
{"compound": "CCOC(=O)CC", "cytotoxicity increase": "inactive"}
{"compound": "CNC(=O)c1c(I)c(NC(C)=O)c(I)c(C(=O)O)c1I", "cytotoxicity increase": "inactive"}

Req: Recorded cytotoxicity increase of `O=c1c(O)c(O)c1=O` , please.
Resp: inactive

Req: Also `CC(=O)Nc1ccc(S(=O)(=O)Nc2cc(C)on2)cc1` , if possible.
Resp: inactive

Req: Also `C[C@H]1COc2c(C3(N)CC3)c(F)cc3c(=O)c(C(=O)O)cn1c23` , if possible.
Resp: inactive

Req: Also CC(=O)OC1CCC(C(C)(C)C)CC1 (centres undefined) , if possible.
Resp: inactive

Req: Also `CC(=O)OCC(=O)[C@@]1(O)CC[C@H]2[C@@H]3CCC4=CC(=O)C=C[C@]4(C)[C@H]3[C@@H](O)C[C@@]21C` , if possible.
Resp: inactive
